tested on: Escherichia coli TOP10; assay: shrunken log2 fold change of peptide-encoding DNA abundance (4.5 h post-induction vs induction); higher = less antimicrobial activity (less host growth inhibition); settings: time post-induction: 4.5 h; library: site-saturation at positions 5, 18, 19, 20
# shrunken log2 fold change >= -0.02 gives Y, anything below gives N

Query: Exam item: decide whether the reported shrunken log2 fold change for RRIRYRPPRLPRPRPRPVGGPRP is at least -0.02.
Response: N

Query: Exam item: decide whether the reported shrunken log2 fold change for RRIRLRPPRLPRPRPRPHCVPRP is at least -0.02.
Response: N

Query: Exam item: decide whether the reported shrunken log2 fold change for RRIRWRPPRLPRPRPRPFPFPRP is at least -0.02.
Response: N

Query: Exam item: decide whether the reported shrunken log2 fold change for RRIRTRPPRLPRPRPRPPLVPRP is at least -0.02.
Response: Y

Query: Exam item: decide whether the reported shrunken log2 fold change for RRIRCRPPRLPRPRPRPKDGPRP is at least -0.02.
Response: Y

Query: Exam item: decide whether the reported shrunken log2 fold change for RRIRTRPPRLPRPRPRPRHCPRP is at least -0.02.
Response: N

Query: Exam item: decide whether the reported shrunken log2 fold change for RRIRMRPPRLPRPRPRPRPAPRP is at least -0.02.
Response: Y

Query: Exam item: decide whether the reported shrunken log2 fold change for RRIRPRPPRLPRPRPRPPLPPRP is at least -0.02.
Response: Y

Query: Exam item: decide whether the reported shrunken log2 fold change for RRIRGRPPRLPRPRPRPDCKPRP is at least -0.02.
Response: Y

Query: Exam item: decide whether the reported shrunken log2 fold change for RRIRLRPPRLPRPRPRPGFFPRP is at least -0.02.
Response: Y

Query: Exam item: decide whether the reported shrunken log2 fold change for RRIRARPPRLPRPRPRPYSEPRP is at least -0.02.
Response: N

Query: Exam item: decide whether the reported shrunken log2 fold change for RRIRWRPPRLPRPRPRPMGTPRP is at least -0.02.
Response: Y

Query: Exam item: decide whether the reported shrunken log2 fold change for RRIRIRPPRLPRPRPRPSQGPRP is at least -0.02.
Response: N

Query: Exam item: decide whether the reported shrunken log2 fold change for RRIRCRPPRLPRPRPRPMGVPRP is at least -0.02.
Response: N

Query: Exam item: decide whether the reported shrunken log2 fold change for RRIRVRPPRLPRPRPRPAASPRP is at least -0.02.
Response: Y

Query: Exam item: decide whether the reported shrunken log2 fold change for RRIRGRPPRLPRPRPRPLVAPRP is at least -0.02.
Response: Y

Query: Exam item: decide whether the reported shrunken log2 fold change for RRIRERPPRLPRPRPRPNDRPRP is at least -0.02.
Response: N

Query: Exam item: decide whether the reported shrunken log2 fold change for RRIRVRPPRLPRPRPRPSYSPRP is at least -0.02.
Response: N

Query: Exam item: decide whether the reported shrunken log2 fold change for RRIRCRPPRLPRPRPRPKTDPRP is at least -0.02.
Response: N

Query: Exam item: decide whether the reported shrunken log2 fold change for RRIRKRPPRLPRPRPRPTKIPRP is at least -0.02.
Response: Y

Query: Exam item: decide whether the reported shrunken log2 fold change for RRIRTRPPRLPRPRPRPWDKPRP is at least -0.02.
Response: N

Query: Exam item: decide whether the reported shrunken log2 fold change for RRIRNRPPRLPRPRPRPSVKPRP is at least -0.02.
Response: N

Query: Exam item: decide whether the reported shrunken log2 fold change for RRIRVRPPRLPRPRPRPRCAPRP is at least -0.02.
Response: Y

Query: Exam item: decide whether the reported shrunken log2 fold change for RRIRPRPPRLPRPRPRPEGIPRP is at least -0.02.
Response: Y

Query: Exam item: decide whether the reported shrunken log2 fold change for RRIRLRPPRLPRPRPRPLWEPRP is at least -0.02.
Response: Y

Query: Exam item: decide whether the reported shrunken log2 fold change for RRIRDRPPRLPRPRPRPWFRPRP is at least -0.02.
Response: N

---

tested on: Escherichia coli TOP10; assay: shrunken log2 fold change of peptide-encoding DNA abundance (4.5 h post-induction vs induction); higher = less antimicrobial activity (less host growth inhibition); conditions: time post-induction: 4.5 h; library: site-saturation at positions 5, 18, 19, 20
# shrunken log2 fold change >= -0.02 gives Yes, anything below gives No

Query: Exam item: decide whether the reported shrunken log2 fold change for RRIRVRPPRLPRPRPRPMNQPRP is at least -0.02.
Response: No

Query: Exam item: decide whether the reported shrunken log2 fold change for RRIRVRPPRLPRPRPRPAWGPRP is at least -0.02.
Response: Yes

Query: Exam item: decide whether the reported shrunken log2 fold change for RRIRGRPPRLPRPRPRPEENPRP is at least -0.02.
Response: Yes

Query: Exam item: decide whether the reported shrunken log2 fold change for RRIRLRPPRLPRPRPRPKLSPRP is at least -0.02.
Response: Yes

Query: Exam item: decide whether the reported shrunken log2 fold change for RRIRNRPPRLPRPRPRPCDTPRP is at least -0.02.
Response: Yes

Query: Exam item: decide whether the reported shrunken log2 fold change for RRIRCRPPRLPRPRPRPCFWPRP is at least -0.02.
Response: Yes

Query: Exam item: decide whether the reported shrunken log2 fold change for RRIRTRPPRLPRPRPRPETPPRP is at least -0.02.
Response: Yes

Query: Exam item: decide whether the reported shrunken log2 fold change for RRIRPRPPRLPRPRPRPMHRPRP is at least -0.02.
Response: Yes

Query: Exam item: decide whether the reported shrunken log2 fold change for RRIRMRPPRLPRPRPRPLTMPRP is at least -0.02.
Response: Yes

Query: Exam item: decide whether the reported shrunken log2 fold change for RRIRWRPPRLPRPRPRPRRDPRP is at least -0.02.
Response: Yes

Query: Exam item: decide whether the reported shrunken log2 fold change for RRIRRRPPRLPRPRPRPFMGPRP is at least -0.02.
Response: No

Query: Exam item: decide whether the reported shrunken log2 fold change for RRIRFRPPRLPRPRPRPSTVPRP is at least -0.02.
Response: No

Query: Exam item: decide whether the reported shrunken log2 fold change for RRIRIRPPRLPRPRPRPEGTPRP is at least -0.02.
Response: Yes

Query: Exam item: decide whether the reported shrunken log2 fold change for RRIRARPPRLPRPRPRPWRYPRP is at least -0.02.
Response: No

Query: Exam item: decide whether the reported shrunken log2 fold change for RRIRYRPPRLPRPRPRPYLDPRP is at least -0.02.
Response: Yes

Query: Exam item: decide whether the reported shrunken log2 fold change for RRIRSRPPRLPRPRPRPLHAPRP is at least -0.02.
Response: Yes

Query: Exam item: decide whether the reported shrunken log2 fold change for RRIRARPPRLPRPRPRPKHYPRP is at least -0.02.
Response: No

Query: Exam item: decide whether the reported shrunken log2 fold change for RRIRERPPRLPRPRPRPSNGPRP is at least -0.02.
Response: No

Query: Exam item: decide whether the reported shrunken log2 fold change for RRIRLRPPRLPRPRPRPRGLPRP is at least -0.02.
Response: Yes

Query: Exam item: decide whether the reported shrunken log2 fold change for RRIRLRPPRLPRPRPRPYITPRP is at least -0.02.
Response: No

Query: Exam item: decide whether the reported shrunken log2 fold change for RRIRNRPPRLPRPRPRPFKQPRP is at least -0.02.
Response: Yes

Query: Exam item: decide whether the reported shrunken log2 fold change for RRIRPRPPRLPRPRPRPNNFPRP is at least -0.02.
Response: No

Query: Exam item: decide whether the reported shrunken log2 fold change for RRIRQRPPRLPRPRPRPCKKPRP is at least -0.02.
Response: Yes

Query: Exam item: decide whether the reported shrunken log2 fold change for RRIRRRPPRLPRPRPRPIKLPRP is at least -0.02.
Response: No

Query: Exam item: decide whether the reported shrunken log2 fold change for RRIRHRPPRLPRPRPRPNSIPRP is at least -0.02.
Response: Yes

Query: Exam item: decide whether the reported shrunken log2 fold change for RRIRMRPPRLPRPRPRPIGRPRP is at least -0.02.
Response: Yes

Query: Exam item: decide whether the reported shrunken log2 fold change for RRIRDRPPRLPRPRPRPLYKPRP is at least -0.02.
Response: Yes

---

test system: Escherichia coli TOP10; assay: shrunken log2 fold change of peptide-encoding DNA abundance (4.5 h post-induction vs induction); higher = less antimicrobial activity (less host growth inhibition); settings: time post-induction: 4.5 h; library: site-saturation at positions 5, 18, 19, 20;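 note: peptides expressed intracellularly from a pBAD plasmid library in pooled LB shake-flask culture, induced with 0.3% L-arabinose, DNA abundance read by NGS, three biological replicates, DESeq2 with apeglm shrinkage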
property: shrunken log2 fold change
Answer as a number with no unit attached.

Query: Reported shrunken log2 fold change for Escherichia coli TOP10, given RRIRRRPPRLPRPRPRPYWKPRP ?
Response: 0.0393

Query: Reported shrunken log2 fold change for Escherichia coli TOP10, given RRIRTRPPRLPRPRPRPMQVPRP ?
Response: -0.21

Query: Reported shrunken log2 fold change for Escherichia coli TOP10, given RRIRPRPPRLPRPRPRPFTCPRP ?
Response: -0.206

Query: Reported shrunken log2 fold change for Escherichia coli TOP10, given RRIRERPPRLPRPRPRPGIMPRP ?
Response: -0.738

Query: Reported shrunken log2 fold change for Escherichia coli TOP10, given RRIRLRPPRLPRPRPRPTMSPRP ?
Response: -0.226

Query: Reported shrunken log2 fold change for Escherichia coli TOP10, given RRIRWRPPRLPRPRPRPSQAPRP ?
Response: -0.126

Query: Reported shrunken log2 fold change for Escherichia coli TOP10, given RRIRHRPPRLPRPRPRPHLNPRP ?
Response: -0.00458

Query: Reported shrunken log2 fold change for Escherichia coli TOP10, given RRIRFRPPRLPRPRPRPFMNPRP ?
Response: -0.03

Query: Reported shrunken log2 fold change for Escherichia coli TOP10, given RRIRLRPPRLPRPRPRPGMTPRP ?
Response: 0.00528

Query: Reported shrunken log2 fold change for Escherichia coli TOP10, given RRIRTRPPRLPRPRPRPMHLPRP ?
Response: -0.318

Query: Reported shrunken log2 fold change for Escherichia coli TOP10, given RRIRARPPRLPRPRPRPYCVPRP ?
Response: 0.118

Query: Reported shrunken log2 fold change for Escherichia coli TOP10, given RRIRVRPPRLPRPRPRPVPGPRP ?
Response: 0.0985

Value source: the supplement of paper PMC9112550
